Values were extracted from the supplement of paper PMC12042874.

protocol: amyloid nucleation score (Sup35N fusion, yeast selection) (log enrichment); library NNK2; higher = more nucleation; inactive = no reads after selection;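 note: zero at mode of non-aggregating sequences after 7 days selection at 30°C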
metric: amyloid nucleation score

1) SYVVGRFNLSRCHLSCGLVS	inactive
2) GCHSFLPGYFTWNYDSDNYF	inactive
3) FKFYGFFD	inactive

* * *

protocol: amyloid nucleation score (Sup35N fusion, yeast selection) (log enrichment); library NNK3; higher = more nucleation; inactive = no reads after selection
metric: amyloid nucleation score

Known amyloid nucleation score results, listed for orientation:
1. SCGYTLWLYRCEIQRRV	inactive
2. MIYSYTNFGNIWKVCQVMRH	2.39
3. FIVVVLLCFG	inactive
4. LLVAYDQIFNF	inactive
5. NEFGEVLDSN	inactive

Given item FTRAAREGFFDLY , the value recorded as its amyloid nucleation score is -0.04

Given item SIWWYNLVVI , the value recorded as its amyloid nucleation score is inactive

Given item KSASKVGLMKAYRNASRTVI , the value recorded as its amyloid nucleation score is inactive

Given item IDVRATNPVRAVETD , the value recorded as its amyloid nucleation score is inactive

Given item YQVHWFSNYTTAWMNYVSTV , the value recorded as its amyloid nucleation score is inactive
